The measurements presented in this section are drawn from ChEMBL document CHEMBL1143093.

Tested target: Sodium-dependent noradrenaline transporter (Homo sapiens)
Sequence (P23975 whole entry): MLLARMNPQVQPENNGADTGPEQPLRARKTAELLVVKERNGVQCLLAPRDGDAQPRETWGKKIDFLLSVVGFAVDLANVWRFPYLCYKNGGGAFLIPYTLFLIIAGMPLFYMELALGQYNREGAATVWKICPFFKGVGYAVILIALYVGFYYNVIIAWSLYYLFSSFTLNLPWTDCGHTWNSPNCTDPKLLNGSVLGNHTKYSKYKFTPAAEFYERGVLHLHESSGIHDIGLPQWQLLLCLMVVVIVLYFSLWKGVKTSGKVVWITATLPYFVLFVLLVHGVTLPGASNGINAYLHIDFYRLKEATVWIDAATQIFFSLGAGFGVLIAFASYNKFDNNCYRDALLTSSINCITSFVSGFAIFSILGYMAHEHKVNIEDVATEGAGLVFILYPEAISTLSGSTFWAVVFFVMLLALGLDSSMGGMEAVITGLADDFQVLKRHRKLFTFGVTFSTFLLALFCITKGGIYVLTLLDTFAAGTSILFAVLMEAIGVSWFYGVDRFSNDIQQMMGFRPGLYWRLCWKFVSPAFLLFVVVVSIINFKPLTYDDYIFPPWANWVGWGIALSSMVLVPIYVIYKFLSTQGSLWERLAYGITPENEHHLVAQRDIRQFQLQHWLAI
Method notes: Inhibition of norepinephrine uptake at human NET expressed in HEK293 cells
IC50 vs 200 nM: less than gives Condition met; not less than gives Condition not met.

Smi: C#CCN(CC#C)C(=O)[C@@]1(c2ccsc2)C[C@H]1CN
Class: Condition met

Smi: CCN(CC)C(=O)[C@@]1(c2nc3ccccc3s2)C[C@H]1CN
Class: Condition not met

Smi: CCN(CC)C(=O)[C@@]1(c2ccccn2)C[C@H]1CN
Class: Condition not met

Smi: CCN(CC)C(=O)[C@@]1(c2ccsc2)C[C@H]1CN
Class: Condition met

Smi: CCN(CC)C(=O)[C@@]1(c2cc3cc(F)ccc3s2)C[C@H]1CN
Class: Condition met

Smi: C=CCN(CC)C(=O)[C@@]1(c2ccsc2)C[C@H]1CN
Class: Condition met

Smi: CCN(CC)C(=O)[C@@]1(c2ccsc2)C[C@H]1CNC
Class: Condition not met

Smi: C=C(F)CN(CCOC)C(=O)[C@@]1(c2ccsc2)C[C@H]1CN
Class: Condition met

Smi: CCN(CC)C(=O)[C@@]1(c2ccc(Br)s2)C[C@H]1CN
Class: Condition met

Smi: CCN(CC)C(=O)[C@@]1(c2cccnc2)C[C@H]1CN
Class: Condition not met
